Target: T1, human EphA10 (Homo sapiens, UniProt Q5JZY3)
T1 construct: a protein of the extracellular region of each human Eph receptor fused with the SEAP protein and the His tag; made in house; host or cells: Expi293F cells (culture supernatant)
T1 sequence (Q5JZY3 34-565 limits assumed): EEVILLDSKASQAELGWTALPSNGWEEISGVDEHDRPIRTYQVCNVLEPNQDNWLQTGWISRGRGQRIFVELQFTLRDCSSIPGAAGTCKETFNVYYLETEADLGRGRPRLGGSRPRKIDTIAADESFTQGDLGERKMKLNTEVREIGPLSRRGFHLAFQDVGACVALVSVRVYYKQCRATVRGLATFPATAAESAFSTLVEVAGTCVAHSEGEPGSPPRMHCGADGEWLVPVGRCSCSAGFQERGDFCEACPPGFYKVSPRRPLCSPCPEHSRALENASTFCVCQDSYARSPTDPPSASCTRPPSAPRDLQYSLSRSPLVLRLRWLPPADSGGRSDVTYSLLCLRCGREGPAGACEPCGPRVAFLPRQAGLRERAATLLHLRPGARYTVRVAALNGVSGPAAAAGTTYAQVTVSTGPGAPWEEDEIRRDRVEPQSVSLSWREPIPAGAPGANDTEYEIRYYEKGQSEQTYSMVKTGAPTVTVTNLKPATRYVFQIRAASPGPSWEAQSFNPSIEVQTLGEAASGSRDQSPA
Experiment: Selectivity ELISA of humanized antibodies for human Eph receptor
Type: binding
Details: coated protein 1 nM
From the text: According to the method described in Example 7, a DNA sequence encoding the signal sequence and the extracellular region of each human Eph receptor (EphA1, EphA2, EphA3, EphA4, EphA5, EphA6, EphA7, EphA8, EphA10, EphB1, EphB2, EphB3, EphB4, and EphB6) was amplified by RT-PCR using tissue-derived total RNA and cloned into a pENTR1A vector (Invitrogen/Life Technologies) having a DNA sequence encoding SEAP protein and histidine tag. […]
quantity.measured: hEphA10-SEAP-: absorbance at 450 nm, percentage with respect to hEphA4-SEAP-His as 100% (%)
# unit: % | format: bare number

Req: Supply measured hEphA10-SEAP-: absorbance at 450 nm, percentage with respect to hEphA4-SEAP-His as 100% of 135 (antibody, V domains shown, synthetic humanized antibody heavy chain variable region sequence; synthetic humanized antibody light chain variable region sequence) VH: QVQLVQSGSELKKPGASVKVSCKASGYTFTDYSMHWVRQAPGQGLEWMGWINTETGEPTYADDFKGRFVFSLDTSVSTAYLQISSLKAEDTAVYYCARIPLYYYGSRYWYFDVWGQGTTVTVSS VL: EIVMTQSPATLSVSPGERATLSCRASENIYRNLAWYQQKPGQSPRLLIYAATNLADGIPARFSGSGSGTEYTLTISSLQSEDFAVYYCQHFWGTPWTFGQGTKVEIK in your reply.
Resp: 5.1

Req: Supply measured hEphA10-SEAP-: absorbance at 450 nm, percentage with respect to hEphA4-SEAP-His as 100% of 95 (antibody, V domains shown, constant regions without entry; synthetic humanized antibody light chain variable region sequence; synthetic humanized antibody heavy chain variable region sequence) VL: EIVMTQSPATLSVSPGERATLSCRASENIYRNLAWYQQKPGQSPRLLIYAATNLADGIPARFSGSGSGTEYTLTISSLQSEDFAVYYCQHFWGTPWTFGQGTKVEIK VH: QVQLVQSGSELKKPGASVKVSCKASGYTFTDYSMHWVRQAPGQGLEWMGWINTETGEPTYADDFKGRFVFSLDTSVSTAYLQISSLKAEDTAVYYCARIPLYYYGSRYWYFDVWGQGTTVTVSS in your reply.
Resp: 4.5
